# Target System: Voltage-gated potassium channel subunit beta-2 (Rattus norvegicus)
# Assay Procedure: inhibitors of rat Kvbeta2 reductase activity – biochemical, NADPH fluorescence, primary screen (AID 622);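 note: slope of raw intensity against log time taken from 70 to 1610 s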
# Assay Context: recombinant KvBeta, 4-cyanobenzaldehyde reduction, at 10 µM, hits give high values
Outcome Measure: fluorescence slope
Output: the number by itself.

Structure	fluorescence slope
O=C(CCC(=O)N1CCc2ccccc2C1)N1CCN(S(=O)(=O)c2ccccc2)CC1	-0.45
Cn1c(=N)n(CC(=O)O)c2ccccc21	-0.595
CCOc1ccccc1NC(=O)CSc1nnc(Cc2cccn2C)n1-c1ccc(F)cc1	-0.577
CC(=O)Nc1ccc(S(=O)(=O)N2CCC(c3nc4ccccc4[nH]3)CC2)cc1	-0.584

q: Return reported fluorescence slope; argument: "Cn1c(=O)c2c(nc(NCc3ccccc3)n2CCCc2ccccc2)n(C)c1=O"
a: -0.521
